IC50 values, listed per item
# MEASURED_ON: SARS-CoV2-Mpro (Severe acute respiratory syndrome coronavirus 2 (2019-nCoV) (SARS-CoV-2), UniProt P0DTD1)
# PROCEDURE_SUMMARY: Primary assay: SARS-CoV2-Mpro enzymatic activity inhibition
# Assay type: biochemical
# MEASUREMENT_PARAMETERS: enzyme preincubated with compound for 20 min; slope of linear portion of signal

COMPOUND	IC50
CC(C)(C)[C@H](NS(C)(=O)=O)C(=O)N1C[C@H]2C([C@H]1C(=O)N[C@H](C#N)CC1C(=O)Nc3ccccc31)C2(C)C (stereo in doubt)	< 10 nM
CC(C)(C)[C@H](NC(=O)C(F)(F)F)C(=O)N1C[C@H]2C([C@H]1C(=O)N[C@H](C#N)CC1C(=O)Nc3ccc(Br)cc31)C2(C)C (stereo in doubt)	10 to 50 nM
CC(C)(C)[C@H](NC(=O)C(F)(F)F)C(=O)N1C[C@H]2[C@@H]([C@H]1C(=O)NC(C#N)CCC1C(=O)Nc3ccccc31)C2(C)C (some centres unmarked)	500 to 1000 nM
CC(C)(C)[C@H](NC(=O)C(F)(F)F)C(=O)N1C[C@H]2[C@H]([C@H]1C(=O)N[C@H](C#N)CC1C(=O)Nc3ccc(Cl)cc31)C2(C)C (some centres unmarked)	10 to 50 nM

Now for the compound whose IC50 we want.
Given the entry COc1ccc2c(c1)C(C[C@@H](C#N)NC(=O)[C@@H]1[C@H]3[C@H](CN1C(=O)[C@@H](NC(=O)C(F)(F)F)C(C)(C)C)C3(C)C)C(=O)N2 (some centres unmarked) , report its measured IC50.
< 10 nM

* * *

# MEASURED_ON: UniProt P0DTD1
# PROCEDURE_SUMMARY: Primary assay: SARS-CoV2-Mpro enzymatic activity inhibition
# Format: biochemical
# MEASUREMENT_PARAMETERS: enzyme preincubated with compound for 20 min; slope of linear portion of signal
Property: IC50; scope: individual molecules

Use these answered entries as a reference point.
MOLECULE	MEASURED_ON	IC50
CC(C)(C)[C@H](NS(C)(=O)=O)C(=O)N1C[C@H]2C([C@H]1C(=O)N[C@H](C#N)C[C@@H]1CCNC1=O)C2(C)C (stereo in doubt)	UniProt P0DTD1	10 to 50 nM
CC(C)(C)[C@H](NC(=O)C(F)(F)F)C(=O)N1C[C@H]2C([C@H]1C(=O)N[C@H](C#N)C[C@]1(C)C(=O)Nc3ccccc31)C2(C)C (stereo in doubt)	UniProt P0DTD1	≥ 1000 nM
CCCN(C(=O)[C@@H]1[C@@H]2[C@H](CN1C(=O)[C@@H](NC(=O)C(F)(F)F)C(C)(C)C)C2(C)C)[C@H](C#N)C[C@@H]1C(=O)Nc2ccccc21	UniProt P0DTD1	≥ 1000 nM
Cc1ccc2c(c1)C(CC(C#N)NC(=O)C1C3[C@H](CN1C(=O)[C@@H](NC(=O)C(F)(F)F)C(C)(C)C)C3(C)C)C(=O)N2 (stereo in doubt)	UniProt P0DTD1	10 to 50 nM
CC(C)(C)[C@H](NS(=O)(=O)CC(F)(F)F)C(=O)N1C[C@H]2C([C@H]1C(=O)N[C@H](C#N)C[C@@H]1CCNC1=O)C2(C)C (stereo in doubt)	UniProt P0DTD1	10 to 50 nM
Cc1ccc2c(c1)C(C[C@@H](C#N)NC(=O)[C@@H]1[C@H]3[C@H](CN1C(=O)[C@@H](NC(=O)C(F)(F)F)C(C)(C)C)C3(C)C)C(=O)N2 (some centres unmarked)	UniProt P0DTD1	10 to 50 nM

API: value(readout=IC50, system=UniProt P0DTD1) for record CC(C)(C)[C@H](NC(=O)C(F)(F)F)C(=O)N1C[C@H]2[C@H]([C@H]1C(=O)N[C@H](C#N)CC1C(=O)Nc3cc(Cl)ccc31)C2(C)C (some centres unmarked)
10 to 50 nM

Could you do the same for CC(C)(C)[C@H](NC(=O)C(F)(F)F)C(=O)N1CCC2(CC2)CC1C(=O)N[C@H](C#N)C[C@@H]1CCNC1=O (mixture of isomers) , please?
10 to 50 nM

# iterate: Cc1ccc2c(c1)C(F)(CC(C#N)NC(=O)C1C3[C@H](CN1C(=O)[C@@H](NC(=O)C(F)(F)F)C(C)(C)C)C3(C)C)C(=O)N2 (stereo in doubt)
10 to 50 nM

Next up: CCOC(=O)N[C@H](C(=O)N1C[C@H]2C([C@H]1C(=O)N[C@H](C#N)CC1C(=O)Nc3ccccc31)C2(C)C)C(C)(C)C (stereo in doubt)
10 to 50 nM

Try this molecule too: CC(C)(C)[C@H](NC(=O)C(F)(F)F)C(=O)N1C[C@H]2[C@@H]([C@H]1C(=O)NC(C#N)CC1C(=O)Nc3ncccc31)C2(C)C (some centres unmarked)
500 to 1000 nM

* * *

# MEASURED_ON: SARS-CoV2-Mpro (Severe acute respiratory syndrome coronavirus 2 (2019-nCoV) (SARS-CoV-2))
# PROCEDURE_SUMMARY: Primary assay: SARS-CoV2-Mpro enzymatic activity inhibition
# Type: biochemical
# MEASUREMENT_PARAMETERS: enzyme preincubated with compound for 20 min; slope of linear portion of signal
OBSERVED_PROPERTY: IC50

MOLECULE	IC50
CN(C(=O)[C@@H]1C2[C@H](CN1C(=O)[C@@H](NC(=O)C(F)(F)F)C(C)(C)C)C2(C)C)[C@H](C#N)CC1C(=O)Nc2ccccc21 (stereo in doubt) [Compound 231]	50 to 100 nM

Endpoint output: IC50 of COC(=O)N[C@H](C(=O)N1C[C@H]2C([C@H]1C(=O)N[C@H](C#N)CC1C(=O)Nc3ccccc31)C2(C)C)C(C)(C)C (stereo in doubt) [Compound 243] . Value?
< 10 nM

How about this molecule: CCOC(=O)N[C@@H](CC(C)C)C(=O)N1C[C@H]2C([C@H]1C(=O)N[C@H](C#N)CC1C(=O)Nc3ccccc31)C2(C)C (stereo in doubt) [Compound 246]
10 to 50 nM

And Cc1cccc2c1C(C[C@@H](C#N)NC(=O)[C@@H]1C3[C@H](CN1C(=O)[C@@H](NC(=O)C(F)(F)F)C(C)(C)C)C3(C)C)C(=O)N2 (stereo in doubt) [Compound 234] ?
500 to 1000 nM

CC(C)(C)[C@H](NC(=O)C(F)(F)F)C(=O)N1C[C@H]2C([C@H]1C(=O)N[C@H](C#N)CC1C(=O)Nc3ccc(F)cc31)C2(C)C (stereo in doubt) [Compound 236] ?
10 to 50 nM

* * *

# MEASURED_ON: SARS-CoV2-Mpro (Severe acute respiratory syndrome coronavirus 2 (2019-nCoV) (SARS-CoV-2), UniProt P0DTD1)
# PROCEDURE_SUMMARY: Primary assay: SARS-CoV2-Mpro enzymatic activity inhibition
# Type: biochemical
# MEASUREMENT_PARAMETERS: enzyme preincubated with compound for 20 min; slope of linear portion of signal
OBSERVED_PROPERTY: IC50

Entry under review: CC(C)(C)[C@H](NC(=O)C(F)(F)F)C(=O)N1C[C@H]2C([C@H]1C(=O)N[C@H](C#N)Cn1c(=O)[nH]c3ccccc31)C2(C)C (stereo in doubt) . Reported IC50?
≥ 1000 nM

Queued: CC(C)(C)[C@H](NC(=O)C(F)(F)F)C(=O)N1C[C@H]2C([C@H]1C(=O)NC(C#N)CC1(F)C(=O)Nc3ccccc31)C2(C)C (stereo in doubt)
10 to 50 nM

// query: `CC(C)CCN(C(=O)[C@@H]1[C@@H]2[C@H](CN1C(=O)[C@@H](NC(=O)C(F)(F)F)C(C)(C)C)C2(C)C)[C@H](C#N)C[C@@H]1C(=O)Nc2ccccc21`
≥ 1000 nM

What would you report for CC(C)(C)[C@H](NC(=O)C(F)(F)F)C(=O)N1C[C@H]2C(C1C(=O)N[C@H](C#N)CC1(F)C(=O)Nc3ccccc31)C2(C)C (stereo in doubt) ?
10 to 50 nM

Would you mind doing CC(C)(C)[C@H](NC(=O)C(F)(F)F)C(=O)N1C[C@H]2C([C@H]1C(=O)N[C@H](C#N)CC1C(=O)Nc3cc(Br)ccc31)C2(C)C (stereo in doubt) as well?
50 to 100 nM

* * *

# IC50 per record follows
# MEASURED_ON: SARS-CoV2-Mpro (Severe acute respiratory syndrome coronavirus 2 (2019-nCoV) (SARS-CoV-2), UniProt P0DTD1)
# PROCEDURE_SUMMARY: Primary assay: SARS-CoV2-Mpro enzymatic activity inhibition
# Type: biochemical
# MEASUREMENT_PARAMETERS: enzyme preincubated with compound for 20 min; slope of linear portion of signal

COMPOUND	IC50
CC(C)(C)[C@H](NC(=O)C(F)(F)F)C(=O)N1C[C@H]2[C@H]([C@H]1C(=O)NC(C#N)CC1C(=O)Nc3ccccc31)C2(C)C (stereo partly drawn)	< 10 nM

GET /values?readout=IC50&item= CC(C)(C)[C@H](NC(=O)C(F)(F)F)C(=O)N1C[C@H]2C([C@H]1C(=O)N[C@H](C#N)CC1C(=O)Nc3c(Cl)cccc31)C2(C)C (stereo in doubt)
< 10 nM

Follow-up item: CC(C)(C)[C@H](NC(=O)C(F)(F)F)C(=O)N1C[C@H]2C([C@H]1C(=O)N[C@H](C#N)CC1C(=O)Nc3ccccc31)C2(C)C (stereo in doubt)
< 10 nM

CC(C)(C)[C@H](NS(C)(=O)=O)C(=O)N1C[C@H]2C([C@H]1C(=O)N[C@H](C#N)C[C@@H]1C(=O)Nc3ccccc31)C2(C)C (stereo in doubt) ?
< 10 nM

Also COc1ccc2c(c1)NC(=O)C2C[C@@H](C#N)NC(=O)[C@@H]1[C@H]2[C@H](CN1C(=O)[C@@H](NC(=O)C(F)(F)F)C(C)(C)C)C2(C)C (stereo partly drawn) , if possible.
10 to 50 nM

Same question, `CC(C)(C)[C@H](NC(=O)C(F)(F)F)C(=O)N1C[C@H]2[C@H]([C@H]1C(=O)N[C@H](C#N)Cn1nnc3ccccc31)C2(C)C` this time
≥ 1000 nM

All figures here come from patent US20250376464A1.
